Assay: Stability in human plasma at 37 °C
Type: in vitro ADME
Conditions: half-life in human plasma
assay metric: half-life

Query :: Indicate its recorded half-life; the compound in question is CC(O)(CCO)CC(=O)NCc1c(F)c(F)c(F)c(F)c1F (stereo not shown)
Result :: > 2 h

* * *

Listed here are compounds together with their documented MIC.
System: vancomycin resistant Enterococcus (VRE)
Test: MIC against additional organisms
Format: cell-based
Conditions: Enterococcus, VRE

Use these answered entries as a reference point.
- compound: "CN[C@H](CC(C)C)C(=O)N[C@H]1C(=O)N[C@@H](CC(N)=O)C(=O)N[C@H]2C(=O)N[C@H]3C(=O)N[C@H](C(=O)N[C@H](C(=O)O)c4cc(O)cc(O)c4-c4cc3ccc4O)[C@H](O)c3ccc(c(Cl)c3)Oc3cc2cc(c3O[C@@H]2O[C@H](CO)[C@@H](O)[C@H](O)[C@H]2O[C@H]2C[C@](C)(N)[C@H](O)[C@H](C)O2)Oc2ccc(cc2Cl)[C@H]1O [vancomycin, reference compound]"
  MIC: "< 12.5 µM"
- compound: "O=C1CC(O)(C(F)(F)F)CCO1 (stereo not shown) [compound 26]"
  MIC: "> 1600 µM"
- compound: "O=C(CC1(C(F)(F)F)CCOC(=O)O1)OCc1ccc(F)cc1 (stereo not shown) [25a]"
  MIC: "> 1600 µM"

Turning to the following compound.
Query :: Provide measured MIC on vancomycin resistant Enterococcus (VRE) for CC1(C)S[C@@H]2[C@H](NC(=O)Cc3ccccc3)C(=O)N2[C@H]1C(=O)O [penicillin G, reference compound] please.
Result :: < 12.5 µM
